# study-system: B-Raf (Homo sapiens (Human))
# Sequence (P15056 whole entry): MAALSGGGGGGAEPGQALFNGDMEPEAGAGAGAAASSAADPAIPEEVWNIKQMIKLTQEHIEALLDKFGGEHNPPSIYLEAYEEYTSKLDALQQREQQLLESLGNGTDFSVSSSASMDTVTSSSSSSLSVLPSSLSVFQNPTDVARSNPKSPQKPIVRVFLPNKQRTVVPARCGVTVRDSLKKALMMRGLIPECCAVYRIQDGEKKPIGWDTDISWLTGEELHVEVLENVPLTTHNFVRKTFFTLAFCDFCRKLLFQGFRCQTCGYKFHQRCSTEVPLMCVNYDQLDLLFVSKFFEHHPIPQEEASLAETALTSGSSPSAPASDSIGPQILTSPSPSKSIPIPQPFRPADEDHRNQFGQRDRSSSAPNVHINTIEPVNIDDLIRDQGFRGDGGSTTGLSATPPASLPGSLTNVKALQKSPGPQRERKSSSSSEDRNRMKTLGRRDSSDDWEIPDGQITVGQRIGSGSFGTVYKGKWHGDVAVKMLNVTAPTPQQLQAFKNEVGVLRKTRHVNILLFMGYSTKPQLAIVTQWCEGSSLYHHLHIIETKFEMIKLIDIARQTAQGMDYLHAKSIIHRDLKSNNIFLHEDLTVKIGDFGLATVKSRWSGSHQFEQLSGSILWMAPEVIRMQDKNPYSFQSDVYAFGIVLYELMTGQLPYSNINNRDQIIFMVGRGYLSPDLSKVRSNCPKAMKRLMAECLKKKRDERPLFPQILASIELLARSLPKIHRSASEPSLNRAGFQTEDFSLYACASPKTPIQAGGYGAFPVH
# assay-name: Raf kinase assay (B-Raf), [33P] incorporation into MEK1(K97R)
# Type: biochemical
# study-conditions: 1.0 μM compound; read-out: B-Raf inhibition at 1.0 μM
readout-name: inhibition at 1 µM (%)

compound	study-system	inhibition at 1 µM / %
COc1cc(-c2ccc3ncnc(Nc4cc(O)c(Cl)cc4Cl)c3c2)ccc1O [Compound 61]	B-Raf (Homo sapiens (Human))	92.6

P. COc1cc(-c2ccc3ncnc(Nc4cccc(C(N)=O)c4)c3c2)ccc1O [Compound 35]
Q. COc1ccc(-c2ccc3ncnc(Nc4ccccc4)c3c2)cc1 [Compound 10]
R. Fc1ccc(Nc2ncnc3ccc(-c4ccc5[nH]ncc5c4)cc23)cc1Cl [Compound 142]
S. COc1cc(-c2ccc3ncnc(Nc4ccc(F)c(NS(C)(=O)=O)c4)c3c2)ccc1O [Compound 130]
Problem: # sort list by recorded inhibition at 1 µM, greatest to least Answer format: the labels, in the requested order.
Solution: P, S, R, Q

1. COc1cc(-c2ccc3nccc(Nc4cccc(O)c4)c3c2)ccc1O [Compound 100]
2. COc1cc(-c2ccc3ncnc(Nc4cccc(N)c4)c3c2)ccc1O [Compound 37]
Problem: Compare the recorded inhibition at 1 µM of 1 and 2 ; state which is larger. Answer by quoting the chosen item's label.
Solution: 1
(1: 95.8%, 2: 65.8%)

a. Fc1ccccc1-c1ccc2nccc(Nc3cccc4[nH]ncc34)c2c1 [Compound 125]
b. CCS(=O)(=O)Nc1ccc(-c2ccc3ncnc(Nc4ccccc4)c3c2)cc1 [Compound 24]
c. COc1ccc(Nc2ncnc3cc(OC)c(-c4ccc(O)c(OC)c4)cc23)cc1O [Compound 42]
Problem: List by increasing inhibition at 1 µM. Give the order by naming the labels one after another as requested.
Solution: c, b, a

A. COc1cc(-c2ccc3ncnc(Nc4ccc(C)cc4F)c3c2)ccc1O [Compound 17]
B. COc1cc(-c2ccc3ncnc(Nc4cc(O)ccc4C)c3c2)ccc1O [Compound 154]
C. COc1cc(-c2ccc3ncnc(Nc4cccc5[nH]ccc45)c3c2)ccc1O [Compound 83]
Problem: Kindly order the items shown according to inhibition at 1 µM, from the highest value down. Respond with the label ranking, as requested.
Solution: B, A, C

----------
# study-system: B-Raf (Homo sapiens (Human))
# assay-name: Raf kinase assay (B-Raf), [33P] incorporation into MEK1(K97R)
# Format: biochemical
# study-conditions: 1.0 μM compound; read-out: B-Raf inhibition at 1.0 μM
readout-name: inhibition at 1 µM (%)

Below: 3 compounds and their reported inhibition at 1 µM.
CCS(=O)(=O)Nc1cccc(-c2ccc3ncnc(Nc4cccc5[nH]ncc45)c3c2)c1 81.1
COc1cc(-c2ccc3ncnc(Nc4ccccc4O)c3c2)ccc1O 62.6
COc1cc(-c2ccc3ncnc(Nc4ccc(C(=O)O)cc4O)c3c2)ccc1O 65

A. COc1cc(-c2ccc3ncnc(Nc4ccc(C(=O)O)cc4)c3c2)ccc1O
B. Oc1cccc(-c2ccc3nccc(Nc4cccc5[nH]ncc45)c3c2)c1
Problem: Out of A and B , name the one with the higher inhibition at 1 µM. Indicate your choice by writing its label.
Solution: B

----------
# study-system: UniProt P04049
# Sequence (P04049 whole entry): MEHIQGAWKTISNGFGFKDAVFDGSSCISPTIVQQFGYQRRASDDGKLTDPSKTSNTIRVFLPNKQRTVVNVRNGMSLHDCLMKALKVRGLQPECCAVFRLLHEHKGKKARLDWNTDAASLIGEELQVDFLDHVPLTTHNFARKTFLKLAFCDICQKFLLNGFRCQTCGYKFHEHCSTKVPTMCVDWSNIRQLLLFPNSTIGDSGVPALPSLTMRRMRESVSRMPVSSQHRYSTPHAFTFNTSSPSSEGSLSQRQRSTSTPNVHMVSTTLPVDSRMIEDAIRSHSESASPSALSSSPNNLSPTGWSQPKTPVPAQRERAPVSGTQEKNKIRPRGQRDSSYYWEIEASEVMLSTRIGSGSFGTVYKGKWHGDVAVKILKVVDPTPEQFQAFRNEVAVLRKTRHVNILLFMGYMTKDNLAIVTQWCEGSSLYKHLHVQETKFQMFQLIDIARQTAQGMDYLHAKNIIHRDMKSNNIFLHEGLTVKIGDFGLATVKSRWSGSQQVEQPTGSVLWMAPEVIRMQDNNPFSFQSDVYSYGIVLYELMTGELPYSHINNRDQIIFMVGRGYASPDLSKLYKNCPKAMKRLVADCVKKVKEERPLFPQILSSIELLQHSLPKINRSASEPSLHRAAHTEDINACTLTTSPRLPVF
# assay-name: Raf kinase assay (C-Raf), [33P] incorporation into MEK1(K97R)
# Assay type: biochemical
readout-name: IC50 (nM)

1. COc1cc(-c2ccc3ncnc(Nc4ccccc4F)c3c2)ccc1O
2. NC(=O)c1cccc(-c2ccc3nccc(Nc4cccc5[nH]ncc45)c3c2)c1
3. COc1cc(-c2ccc3ncnc(Nc4c(F)cccc4F)c3c2)ccc1O
Problem: List the 3 compounds shown above, ordered by increasing IC50. A complete answer lists every label in the requested sequence.
Solution: 2, 1, 3

P. Oc1c(F)ccc(Nc2ncnc3ccc(-c4ccc5[nH]ncc5c4)cc23)c1F
Q. COc1cc(-c2ccc3ncnc(Nc4cccc(NC(C)=O)c4)c3c2)ccc1O
Problem: Parameter metric = IC50. Return the lower-valued option from P and Q . Field: selected label. Fill in the label of the entry you choose.
Solution: P

A. COc1cc(-c2ccc3nccc(Nc4cc(O)ccc4F)c3c2)ccc1O
B. Oc1cc(Nc2ncnc3ccc(-c4ccc(Cl)cc4)cc23)c(F)cc1F
C. NC(=O)c1cccc(-c2ccc3ncnc(Nc4cccc5[nH]ncc45)c3c2)c1
D. COc1ccc(Nc2ncnc3ccc(-c4ccc(O)c(OC)c4)cc23)cc1O
E. COc1cc(-c2ccc3ncnc(Nc4cccc5[nH]ncc45)c3c2)ccc1O
Problem: Could you please sort these 5 entries by IC50 from high to low? # list labels per requested ordering
Solution: D, C, E, B, A
(D: 1560 nM, C: 584 nM, E: 404 nM, B: 147 nM, A: 96.1 nM)

I. CS(=O)(=O)c1ccc(-c2ccc3ncnc(Nc4cccc5[nH]ncc45)c3c2)cc1
II. COc1cc(-c2ccc3ncnc(Nc4ccc(F)c(O)c4F)c3c2)ccc1O
III. Oc1ccc(-c2ccc3ncnc(Nc4cccc(O)c4)c3c2)cc1
IV. COc1cccc(-c2ccc3ncnc(Nc4cccc(O)c4)c3c2)c1
V. CC(=O)Nc1ccc(-c2ccc3ncnc(Nc4cccc5[nH]ncc45)c3c2)cc1
Problem: // smallest IC50 at index 0, largest at the end Lab note: final answer is the ordered label list.
Solution: II, III, I, V, IV
(II: 197 nM, III: 335 nM, I: 650 nM, V: 935 nM, IV: 2400 nM)

1. Fc1ccccc1-c1ccc2ncnc(Nc3cccc4[nH]ncc34)c2c1
2. COc1cccc(-c2ccc3nccc(Nc4cccc5[nH]ncc45)c3c2)c1F
Problem: Would you mind telling me which has the lower recorded IC50 between 1 and 2 ? Pick one and reply with its label.
Solution: 2
(2: 290 nM, 1: 709 nM)

A. FC(F)(F)c1cccc(-c2ccc3ncnc(Nc4cccc5[nH]ncc45)c3c2)c1
B. Oc1ccc(-c2ccc3nccc(Nc4cccc5[nH]ncc45)c3c2)cc1
Problem: Between A and B , which one has the lower reported IC50 value? To answer, give the label that identifies your chosen option.
Solution: B
(B: 409 nM, A: 844 nM)

A. c1ccc(-c2ccc3ncnc(Nc4cccc5[nH]ncc45)c3c2)cc1
B. COc1cc(-c2ccc3ncnc(Nc4cc(O)ccc4Cl)c3c2)ccc1O
C. COc1cc(-c2ccc3ncnc(Nc4cccc(O)c4Cl)c3c2)ccc1O
D. Oc1ccc(-c2ccc3ncnc(Nc4cccc5[nH]ncc45)c3c2)cc1
E. COc1cccc(-c2ccc3ncnc(Nc4cccc5[nH]ncc45)c3c2)c1OC
Problem: Sort entries by IC50 from minimum to maximum value. Response format: the labels, sorted as the prompt asks.
Solution: C, B, A, E, D
(C: 152 nM, B: 290 nM, A: 597 nM, E: 2130 nM, D: 4210 nM)

I. Fc1ccc(-c2ccc3ncnc(Nc4cccc5[nH]ncc45)c3c2)cc1F
II. COc1cc(-c2ccc3ncnc(Nc4ccc(Cl)cc4O)c3c2)ccc1O
Problem: // compare measured IC50, left I , right II , return larger // return label of chosen record
Solution: II
(II: 810 nM, I: 495 nM)

Reference for the values: patent US8785459B2
